Attribution: patent US10323018B2

# System: PC3 cells
# Experiment summary: PC3 growth inhibition (Cell-titer glo, 72 hours)
# Format: cell-based
# Conditions: Homo sapiens, PC-3, 72 h, read-out: Percent Viability, PC3 cells, compound concentration 1.667 μM, 72 hours
Each record here notes measured viability at 1.667 µM.
Kindly provide the numeric value in % only, without the unit symbol.

Solved entries (count: 5):
{"Compound": "CC(C)(C)OCc1nc(-c2ccc(Cl)cc2)nc2cc(C(=O)NCCCc3ncc[nH]3)ccc12", "viability at 1.667 µM / %": 1}
{"Compound": "CCOc1cc(-c2ccc(F)cc2)nc2cc(C(=O)NCCc3nnc[nH]3)ccc12", "viability at 1.667 µM / %": 3}
{"Compound": "CCOc1cc(-c2ccc(OC)nc2)nc2cc(C(=O)NCCCc3cnn[nH]3)ccc12", "viability at 1.667 µM / %": 2}
{"Compound": "CCOc1cc(-c2ccc(F)cc2)nc2cc(C(=O)N[C@H]3C[C@@H](c4ncc[nH]4)C3)ccc12", "viability at 1.667 µM / %": 1}
{"Compound": "CCOc1cc(-c2ccc(OC)nc2OC)nc2cc(C(=O)NCCCc3nnc[nH]3)ccc12", "viability at 1.667 µM / %": 2}

Tell us which viability at 1.667 µM value is on record for CCCc1cc(-c2ccc(F)cc2)nc2cc(C(=O)NCCCc3ncn[nH]3)ccc12 2

Check the records and state viability at 1.667 µM for CCOc1nc(-c2ccc(Cl)s2)nc2cc(C(=O)NCCCc3ncc[nH]3)ccc12 1

Consider the compound CCOc1cc(-c2ccc(OC)nc2)nc2cc(C(=O)NCCCc3ccn[nH]3)ccc12 . State its measured viability at 1.667 µM. 3

For the compound CCOc1cc(-c2cc(F)ccc2OC)nc2cc(C(=O)NCCc3nnc[nH]3)ccc12 , give its reported viability at 1.667 µM. 5

Given the compound CCOc1cc(-c2ccc(F)cc2)nc2cc(C(=O)NCCCc3ccnnc3)ccc12 , write its reported viability at 1.667 µM. 8

Please look at this compound and report its viability at 1.667 µM: CCOc1cc(-c2ccc(=O)n(C)c2)nc2cc(C(=O)NCCCc3cnn[nH]3)ccc12 1

Specify reported viability at 1.667 µM for the compound shown: CCOc1cc(-c2ccnc(OC)c2)nc2cc(C(=O)NCc3ccn4ncnc4c3)ccc12 1

Give the measured viability at 1.667 µM for CCOc1cc(-c2cc(OC)ncc2F)nc2cc(C(=O)NCc3nc4cnccc4[nH]3)ccc12 3

State its viability at 1.667 µM for this compound: COCCOCc1nc(-c2ccc(Cl)cc2)nc2cc(C(=O)NCCCc3nnc[nH]3)ccc12 1

Specify viability at 1.667 µM for CCOc1cc(-c2ccc(=O)n(C)c2)nc2cc(C(=O)NCCCc3[nH]nnc3C)ccc12 and stop. 2

Quickly give me recorded viability at 1.667 µM for CC[C@@H](F)c1nc(-c2ccc(Cl)cc2)nc2cc(C(=O)NCCCc3ncc[nH]3)ccc12 (stereo in doubt) 1

* * *

# Tested system: hNAMPT protein (Homo sapiens (Human), UniProt P43490)
# Sequence (P43490 whole entry): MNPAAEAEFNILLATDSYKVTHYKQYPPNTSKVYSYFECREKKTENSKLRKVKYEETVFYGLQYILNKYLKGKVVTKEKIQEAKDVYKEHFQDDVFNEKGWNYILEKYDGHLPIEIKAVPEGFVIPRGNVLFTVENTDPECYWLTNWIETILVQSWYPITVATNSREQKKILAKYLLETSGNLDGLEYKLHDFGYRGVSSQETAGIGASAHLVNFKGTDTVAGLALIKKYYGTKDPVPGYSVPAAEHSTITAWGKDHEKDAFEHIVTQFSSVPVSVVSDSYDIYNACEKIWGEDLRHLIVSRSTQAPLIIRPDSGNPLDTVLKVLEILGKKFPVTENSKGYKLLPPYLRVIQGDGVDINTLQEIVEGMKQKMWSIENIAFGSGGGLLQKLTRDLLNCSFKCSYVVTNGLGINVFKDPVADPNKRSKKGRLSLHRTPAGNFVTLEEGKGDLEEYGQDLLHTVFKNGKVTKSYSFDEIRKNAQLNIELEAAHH
# Experiment summary: NAMPT enzyme assay (TR-FRET/HTRF with BodiPY ligand)
# Type: binding
# Conditions: NAMPT inhibition at compound concentration 1 μM; read-out: Percent Inhibition
inhibition at 1 µM listing for selected molecules.
Provide only the numeric value, understood in %.

{"Molecule": "CCOc1c(F)c(-c2ccc(F)cc2)nc2cc(C(=O)NCCCc3cnn[nH]3)ccc12 [Compound I-73]", "inhibition at 1 µM (%)": 100}

Give recorded inhibition at 1 µM. CCOc1cc(-c2ccc(C)nc2)nc2cc(C(=O)NCCCc3[nH]nnc3C)ccc12 [Compound I-112] 99

Please give the documented inhibition at 1 µM of CCOc1cc(-c2ccc(F)cc2)nc2cc(C(=O)NCCCc3ccc(C)nc3)ccc12 [Compound I-227] 100

For the molecule CCOc1cc(-c2cncc(C)c2)nc2cc(C(=O)NCCCc3nnc[nH]3)ccc12 [Compound I-127] , report inhibition at 1 µM. 87

For the molecule CCOc1cc(-c2ccc(OC)nc2C)nc2cc(C(=O)NCCCc3nnc[nH]3)ccc12 [Compound I-138] , report inhibition at 1 µM. 89
